System: Escherichia coli TOP10
Assay procedure: shrunken log2 fold change of peptide-encoding DNA abundance (4.5 h post-induction vs induction); higher = less antimicrobial activity (less host growth inhibition)
Condition parameters: time post-induction: 4.5 h; library: site-saturation at positions 5, 18, 19, 20
# Lookup of reported shrunken log2 fold change keyed by entry
Measurement kind: shrunken log2 fold change

> print(dat)
                 seq.string   result
 1  RRIRERPPRLPRPRPRPHAEPRP  -0.0335
 2  RRIRKRPPRLPRPRPRPRLSPRP   0.0586
 3  RRIRVRPPRLPRPRPRPAHHPRP   -0.011
 4  RRIRQRPPRLPRPRPRPYNFPRP  -0.0266
 5  RRIRRRPPRLPRPRPRPCQPPRP  -0.0346
 6  RRIRYRPPRLPRPRPRPPERPRP    0.251
 7  RRIRPRPPRLPRPRPRPDIEPRP   -0.215
 8  RRIRQRPPRLPRPRPRPKNTPRP   -0.394
 9  RRIRWRPPRLPRPRPRPWPRPRP    0.223
10  RRIRRRPPRLPRPRPRPLMLPRP   -0.108
11  RRIRKRPPRLPRPRPRPVDWPRP    0.852
12  RRIRRRPPRLPRPRPRPKAWPRP   0.0767
13  RRIRYRPPRLPRPRPRPIPCPRP   -0.156
14  RRIRIRPPRLPRPRPRPPCRPRP   0.0264
15  RRIRDRPPRLPRPRPRPNYRPRP   -0.152

* * *

Test system: Escherichia coli TOP10
Assay procedure: shrunken log2 fold change of peptide-encoding DNA abundance (4.5 h post-induction vs induction); higher = less antimicrobial activity (less host growth inhibition)
Condition parameters: time post-induction: 4.5 h; library: site-saturation at positions 5, 18, 19, 20
Measurement kind: shrunken log2 fold change

> print(dat)
                 seq.string             target.desc   number
 1  RRIRVRPPRLPRPRPRPYDPPRP  Escherichia coli TOP10   -0.468
 2  RRIRWRPPRLPRPRPRPTENPRP  Escherichia coli TOP10   0.0907
 3  RRIRARPPRLPRPRPRPKMWPRP  Escherichia coli TOP10    0.553
 4  RRIRWRPPRLPRPRPRPAVYPRP  Escherichia coli TOP10   -0.682
 5  RRIRVRPPRLPRPRPRPHNYPRP  Escherichia coli TOP10   -0.181
 6  RRIRIRPPRLPRPRPRPNQIPRP  Escherichia coli TOP10   -0.713
 7  RRIRGRPPRLPRPRPRPCDQPRP  Escherichia coli TOP10  -0.0239
 8  RRIRDRPPRLPRPRPRPLLGPRP  Escherichia coli TOP10    0.356
 9  RRIRLRPPRLPRPRPRPWFEPRP  Escherichia coli TOP10   -0.218
10  RRIRQRPPRLPRPRPRPITWPRP  Escherichia coli TOP10    0.129
11  RRIRKRPPRLPRPRPRPNKFPRP  Escherichia coli TOP10  -0.0338
12  RRIRGRPPRLPRPRPRPQHAPRP  Escherichia coli TOP10    0.797
13  RRIRWRPPRLPRPRPRPEGSPRP  Escherichia coli TOP10    0.754
14  RRIRCRPPRLPRPRPRPTKHPRP  Escherichia coli TOP10  0.00206
15  RRIRWRPPRLPRPRPRPQDWPRP  Escherichia coli TOP10     0.36

* * *

System: Escherichia coli TOP10
Assay procedure: shrunken log2 fold change of peptide-encoding DNA abundance (4.5 h post-induction vs induction); higher = less antimicrobial activity (less host growth inhibition)
Condition parameters: time post-induction: 4.5 h; library: site-saturation at positions 5, 18, 19, 20
Documented shrunken log2 fold change across a set of sequences
Measurement kind: shrunken log2 fold change

> print(dat)
                 seq.string             target.desc           measurement.kind    number
 1  RRIRRRPPRLPRPRPRPFSDPRP  Escherichia coli TOP10  shrunken log2 fold change    -0.311
 2  RRIRLRPPRLPRPRPRPCDRPRP  Escherichia coli TOP10  shrunken log2 fold change    -0.114
 3  RRIRSRPPRLPRPRPRPRFKPRP  Escherichia coli TOP10  shrunken log2 fold change    0.0925
 4  RRIRGRPPRLPRPRPRPKAYPRP  Escherichia coli TOP10  shrunken log2 fold change      0.12
 5  RRIRPRPPRLPRPRPRPVNPPRP  Escherichia coli TOP10  shrunken log2 fold change    0.0675
 6  RRIRARPPRLPRPRPRPPFAPRP  Escherichia coli TOP10  shrunken log2 fold change      0.87
 7  RRIRHRPPRLPRPRPRPLQLPRP  Escherichia coli TOP10  shrunken log2 fold change    -0.213
 8  RRIRHRPPRLPRPRPRPWMMPRP  Escherichia coli TOP10  shrunken log2 fold change    -0.463
 9  RRIRYRPPRLPRPRPRPPRWPRP  Escherichia coli TOP10  shrunken log2 fold change     0.466
10  RRIRYRPPRLPRPRPRPVIKPRP  Escherichia coli TOP10  shrunken log2 fold change    -0.585
11  RRIRMRPPRLPRPRPRPNHTPRP  Escherichia coli TOP10  shrunken log2 fold change    -0.213
12  RRIRARPPRLPRPRPRPKGDPRP  Escherichia coli TOP10  shrunken log2 fold change     -0.07
13  RRIRYRPPRLPRPRPRPFHGPRP  Escherichia coli TOP10  shrunken log2 fold change    0.0221
14  RRIRHRPPRLPRPRPRPDGAPRP  Escherichia coli TOP10  shrunken log2 fold change   -0.0729
15  RRIRERPPRLPRPRPRPIDAPRP  Escherichia coli TOP10  shrunken log2 fold change    0.0409
16  RRIRSRPPRLPRPRPRPLTKPRP  Escherichia coli TOP10  shrunken log2 fold change    -0.175
17  RRIRVRPPRLPRPRPRPVDMPRP  Escherichia coli TOP10  shrunken log2 fold change   0.00782
18  RRIRFRPPRLPRPRPRPSFQPRP  Escherichia coli TOP10  shrunken log2 fold change    -0.145
19  RRIRCRPPRLPRPRPRPTHHPRP  Escherichia coli TOP10  shrunken log2 fold change     0.126
20  RRIRMRPPRLPRPRPRPPVVPRP  Escherichia coli TOP10  shrunken log2 fold change     0.753
21  RRIRIRPPRLPRPRPRPGTYPRP  Escherichia coli TOP10  shrunken log2 fold change   -0.0378
22  RRIRLRPPRLPRPRPRPCQQPRP  Escherichia coli TOP10  shrunken log2 fold change    -0.047
23  RRIRGRPPRLPRPRPRPWTLPRP  Escherichia coli TOP10  shrunken log2 fold change     0.161
24  RRIRGRPPRLPRPRPRPWKKPRP  Escherichia coli TOP10  shrunken log2 fold change  -0.00973
25  RRIRERPPRLPRPRPRPPIVPRP  Escherichia coli TOP10  shrunken log2 fold change    -0.302
26  RRIRGRPPRLPRPRPRPITKPRP  Escherichia coli TOP10  shrunken log2 fold change   -0.0602
27  RRIRKRPPRLPRPRPRPKGRPRP  Escherichia coli TOP10  shrunken log2 fold change     0.262
28  RRIRWRPPRLPRPRPRPLQQPRP  Escherichia coli TOP10  shrunken log2 fold change     0.115
29  RRIRERPPRLPRPRPRPQYRPRP  Escherichia coli TOP10  shrunken log2 fold change    -0.612
30  RRIRSRPPRLPRPRPRPGKCPRP  Escherichia coli TOP10  shrunken log2 fold change    0.0216
31  RRIRGRPPRLPRPRPRPGMPPRP  Escherichia coli TOP10  shrunken log2 fold change     0.406
32  RRIRERPPRLPRPRPRPQCFPRP  Escherichia coli TOP10  shrunken log2 fold change    -0.702

* * *

Entries and their shrunken log2 fold change values follow.
Tested on: Escherichia coli TOP10;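 also: peptides expressed intracellularly from a pBAD plasmid library in pooled LB shake-flask culture, induced with 0.3% L-arabinose, DNA abundance read by NGS, three biological replicates, DESeq2 with apeglm shrinkage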
Assay procedure: shrunken log2 fold change of peptide-encoding DNA abundance (4.5 h post-induction vs induction); higher = less antimicrobial activity (less host growth inhibition)
Condition parameters: time post-induction: 4.5 h; library: site-saturation at positions 5, 18, 19, 20
Measurement kind: shrunken log2 fold change

> print(dat)
                seq.string             target.desc  number
1  RRIRQRPPRLPRPRPRPVFSPRP  Escherichia coli TOP10  -0.192
2  RRIRMRPPRLPRPRPRPGESPRP  Escherichia coli TOP10    1.29
3  RRIRWRPPRLPRPRPRPDDLPRP  Escherichia coli TOP10  -0.024
4  RRIRWRPPRLPRPRPRPNINPRP  Escherichia coli TOP10  -0.429
5  RRIRQRPPRLPRPRPRPDDQPRP  Escherichia coli TOP10   0.164
6  RRIRWRPPRLPRPRPRPDRDPRP  Escherichia coli TOP10  0.0716
7  RRIRWRPPRLPRPRPRPSCDPRP  Escherichia coli TOP10   0.574
8  RRIRCRPPRLPRPRPRPWMHPRP  Escherichia coli TOP10  -0.621
